Where a name gives a salt, the structure may show the parent alone.
Below are IC50 values recorded for UniProt I3LUI7.
Sequence (I3LUI7 19-1212): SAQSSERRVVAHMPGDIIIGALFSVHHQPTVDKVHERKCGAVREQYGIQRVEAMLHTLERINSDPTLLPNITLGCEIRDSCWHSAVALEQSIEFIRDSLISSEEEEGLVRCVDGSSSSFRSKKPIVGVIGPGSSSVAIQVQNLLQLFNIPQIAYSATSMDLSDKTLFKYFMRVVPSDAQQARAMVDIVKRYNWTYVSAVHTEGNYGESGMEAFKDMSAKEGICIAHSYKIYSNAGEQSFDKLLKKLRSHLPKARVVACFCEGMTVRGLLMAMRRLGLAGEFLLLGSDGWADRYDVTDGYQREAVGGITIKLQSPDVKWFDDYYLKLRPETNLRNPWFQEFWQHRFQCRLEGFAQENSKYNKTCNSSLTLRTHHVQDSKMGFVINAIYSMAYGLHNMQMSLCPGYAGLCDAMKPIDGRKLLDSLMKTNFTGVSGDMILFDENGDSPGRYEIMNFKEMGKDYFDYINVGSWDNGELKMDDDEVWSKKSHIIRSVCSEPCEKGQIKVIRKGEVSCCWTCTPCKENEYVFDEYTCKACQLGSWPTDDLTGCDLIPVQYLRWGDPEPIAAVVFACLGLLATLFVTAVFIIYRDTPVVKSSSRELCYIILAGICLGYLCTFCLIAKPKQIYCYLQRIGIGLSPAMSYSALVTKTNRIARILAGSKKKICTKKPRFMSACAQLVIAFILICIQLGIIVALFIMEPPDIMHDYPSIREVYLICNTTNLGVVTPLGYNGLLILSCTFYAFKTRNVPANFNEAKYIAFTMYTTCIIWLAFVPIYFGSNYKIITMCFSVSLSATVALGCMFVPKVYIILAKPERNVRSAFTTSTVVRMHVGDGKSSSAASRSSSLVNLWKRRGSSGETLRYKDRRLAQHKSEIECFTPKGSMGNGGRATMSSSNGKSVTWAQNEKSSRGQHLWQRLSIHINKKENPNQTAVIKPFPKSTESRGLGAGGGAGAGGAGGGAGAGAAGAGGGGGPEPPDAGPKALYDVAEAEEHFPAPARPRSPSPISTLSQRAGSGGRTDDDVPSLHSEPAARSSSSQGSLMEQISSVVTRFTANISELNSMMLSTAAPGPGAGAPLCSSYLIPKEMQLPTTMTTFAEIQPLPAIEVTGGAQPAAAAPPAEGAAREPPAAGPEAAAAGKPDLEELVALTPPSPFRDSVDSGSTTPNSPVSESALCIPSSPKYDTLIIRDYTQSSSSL
measuredProperty: IC50 (nM)

                                   compound  testvalue
0  Cc1cccc(C#Cc2cccc(-c3nc4cnccn4c3NC(C)(C)C)c2)n1        880
1  CC(C)(C)Nc1c(-c2cccc(C#Cc3ccccn3)c2)nc2cnccn12       1370
2  COc1cccc(C#Cc2ccc(-c3nc4cnccn4c3NC(C)(C)C)s2)c1 [Example 113, hydrochloride]         75
3  CC(C)(C)Nc1c(-c2ccc(C#Cc3ccc(N)nc3)s2)nc2cnccn12 [Example 128, hydrochloride]      15600
